All values here come from patent US10030020B2.

# experimental target: ABHD6 (Mus musculus (Mouse))
# Sequence (Q8R2Y0 whole entry): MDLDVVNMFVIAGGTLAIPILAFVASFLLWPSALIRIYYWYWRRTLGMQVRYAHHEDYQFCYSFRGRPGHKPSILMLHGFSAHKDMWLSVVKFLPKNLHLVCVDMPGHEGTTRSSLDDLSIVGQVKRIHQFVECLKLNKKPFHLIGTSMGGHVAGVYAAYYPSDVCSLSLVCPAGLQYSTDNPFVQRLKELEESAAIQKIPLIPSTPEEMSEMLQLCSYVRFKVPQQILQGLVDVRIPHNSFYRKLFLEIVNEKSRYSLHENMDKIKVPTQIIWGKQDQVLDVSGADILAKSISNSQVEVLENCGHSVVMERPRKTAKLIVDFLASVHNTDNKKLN
# assay method text: In vitro competitive activity-based protein profiling (mouse brain membrane fraction or cell lysates), ABHD6 band
# Assay type: biochemical
# run conditions: 1 μM, mouse proteome; read-out: ABHD6 % Inh 1 μM (mouse)
recorded endpoint: inhibition at 1 µM

{"columns": ["compound", "value measured"],
 "data": [
  ["O=C(OC(C(F)(F)F)C(F)(F)F)N1CCC2(CCCN2Cc2ccc(C(F)(F)F)cc2N2CCS(=O)(=O)CC2)CC1 [Example 92]", "≥ 75%"],
  ["O=C(OC(C(F)(F)F)C(F)(F)F)N1CCC2(CCCN2Cc2ccc(Cl)cc2N2CC3COCC3C2)CC1 (stereo not drawn) [Example 108]", "< 25%"],
  ["O=C(OC(C(F)(F)F)C(F)(F)F)N1CCC2(CCCN2Cc2cc(N3CCN(C4CC4)CC3)cc(C(F)(F)F)c2)CC1 [Example 41]", "< 25%"],
  ["O=C(OC(C(F)(F)F)C(F)(F)F)N1CCC2(CCCN2Cc2ccccc2Cl)CC1 [Example 60]", "< 25%"],
  ["O=C(OC(C(F)(F)F)C(F)(F)F)N1CCC2(CCN(Cc3ccc(C(F)(F)F)cc3N3CCCC3)C2)CC1 [Example 72]", "< 25%"],
  ["O=C(OC(C(F)(F)F)C(F)(F)F)N1CCC2(CCCN2Cc2cc(Cl)cc(N3CCCC3)c2)CC1 [Example 34]", "< 25%"],
  ["O=C(OC(C(F)(F)F)C(F)(F)F)N1CCC2(CCCN2Cc2cccc(N3CCC4(CCOCC4)C3)c2Cl)CC1 [Example 117]", "< 25%"],
  ["CCN1CCc2cccc(CN3CCCC34CCN(C(=O)OC(C(F)(F)F)C(F)(F)F)CC4)c2C1 [Example 144]", "25 to 75%"],
  ["O=C(OC(C(F)(F)F)C(F)(F)F)N1CCC2(CCCN2Cc2ccc(OCCN3CCOCC3)cc2)CC1 [Example 14]", "< 25%"],
  ["O=C(O)c1cc(CN2CCCC23CCN(C(=O)OC(C(F)(F)F)C(F)(F)F)CC3)cc(C(F)(F)F)c1 [Example 206]", "25 to 75%"],
  ["CC(=O)N1CCN(c2cc(C(F)(F)F)ccc2CN2CCCC23CCN(C(=O)OC(C(F)(F)F)C(F)(F)F)CC3)CC1 [Example 88]", "< 25%"],
  ["O=C(OC(C(F)(F)F)C(F)(F)F)N1CCC2(CCCN2Cc2cccc(N3CCN(C4CC4)CC3)c2Cl)CC1 [Example 115]", "< 25%"],
  ["O=C(OC(C(F)(F)F)C(F)(F)F)N1CCC2(CCCN2Cc2cc(OC3CCOCC3)cc(C(F)(F)F)c2)CC1 [Example 170]", "< 25%"],
  ["CC1(C)CC2(CCN(C(=O)OC(C(F)(F)F)C(F)(F)F)CC2)CN1Cc1ccc(Cl)cc1N1CCOCC1 [Example 50]", "25 to 75%"],
  ["O=C(OC(C(F)(F)F)C(F)(F)F)N1CCC2(CCCN2Cc2cc(N3CCS(=O)(=O)CC3)cc(C(F)(F)F)c2)CC1 [Example 42]", "< 25%"]
]}

---

# experimental target: MAGL (Mus musculus (Mouse), UniProt O35678)
# Sequence (O35678 whole entry): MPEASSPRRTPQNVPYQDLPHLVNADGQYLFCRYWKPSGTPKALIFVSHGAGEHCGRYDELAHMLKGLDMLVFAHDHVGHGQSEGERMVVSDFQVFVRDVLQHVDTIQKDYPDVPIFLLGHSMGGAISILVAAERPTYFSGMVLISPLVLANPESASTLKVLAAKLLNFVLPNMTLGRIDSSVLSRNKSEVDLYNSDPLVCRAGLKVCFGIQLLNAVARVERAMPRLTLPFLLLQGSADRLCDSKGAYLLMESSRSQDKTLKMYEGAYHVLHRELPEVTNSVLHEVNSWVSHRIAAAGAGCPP
# assay method text: In vitro competitive activity-based protein profiling (mouse brain membrane fraction or cell lysates), MAGL band
# Type: biochemical
# run conditions: mouse
pIC50: −log10 of the molar value.
recorded endpoint: pIC50

{"columns": ["cpd smiles", "value measured"],
 "data": [
  ["O=C(O)C1CCN(Cc2cc(C(F)(F)F)ccc2CN2CCCC23CCN(C(=O)OC(C(F)(F)F)C(F)(F)F)CC3)CC1", "6.00 to 7.00"]
]}
